The following compounds are shown together with reported residual activity values.
subject-of-test: PBK (human) (UniProt Q96KB5)
Sequence (Q96KB5 whole entry, looked up): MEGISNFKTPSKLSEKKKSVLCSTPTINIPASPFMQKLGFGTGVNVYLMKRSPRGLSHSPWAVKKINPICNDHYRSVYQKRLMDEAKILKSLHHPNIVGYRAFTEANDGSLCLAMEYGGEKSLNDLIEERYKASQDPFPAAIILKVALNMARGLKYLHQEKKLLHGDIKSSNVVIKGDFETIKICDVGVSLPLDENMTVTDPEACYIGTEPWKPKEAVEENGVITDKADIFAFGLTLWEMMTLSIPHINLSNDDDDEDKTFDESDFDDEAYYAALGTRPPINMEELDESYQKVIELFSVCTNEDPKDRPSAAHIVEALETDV
assay-comment: radiometric filter-binding kinase assay, Kinase HotSpot
experimental-setup: compound 0.5 µM; ATP 10 µM
Answer in %, number only, no unit symbol.

Requested read-out: residual activity. Entry: `COc1ccc2c(c1)/C(=C/c1cnc[nH]1)C(O)=N2`
124

Requested read-out: residual activity. Entry: `Cc1cccc(-c2nc(C(C)(C)C)[nH]c2-c2ccc3c(c2)OCO3)n1`
103

Requested read-out: residual activity. Entry: `COc1ccc2c(c1)c(C1=C(c3c[nH]c4ccccc34)C(=O)NC1=O)cn2CCCN(C)C`
96.8
